This collection of values is drawn from ChEMBL document CHEMBL3826876.

method: Effect on synthetic c-KIT2 G-quadruplex DNA topology at 4 mol equiv by circular dichroism spectroscopic analysis
Active and inactive are the calls of the source. The calls are words filed in the database; no cut-off is given here.
assay_readout: Activity

Solved cases below.
{"sample_smiles": "C(=N\\Nc1ccccn1)/c1c(-c2ccccc2)nc2n1ccc1nc(-c3ccccc3)c(/C=N/Nc3ccccn3)n12", "Activity": "inactive"}
{"sample_smiles": "N=C(N)N/N=C/c1c(-c2ccccc2)nc2ccn3c(/C=N/N=C(N)N)c(-c4ccccc4)nc3n12", "Activity": "inactive"}
{"sample_smiles": "Cn1c(Cl)c(/C=N/NC(=N)N)c2cc3c(/C=N/NC(=N)N)c(Cl)n(C)c3cc21", "Activity": "inactive"}
{"sample_smiles": "Cn1c(Cl)c(/C=N/NC(=N)N)c2ccc(/C=N/NC(=N)N)cc21", "Activity": "inactive"}

--- query ---
What value of measured Activity is listed for CN1C(=C2\C(=N\NC(=N)N)c3ccccc3N2C)/C(=N/NC(=N)N)c2ccccc21 ?
inactive

* * *

For each entry below, report its IC50 value.
method: Cytotoxicity against human HCT116 cells assessed as cell killing after 24 hrs by MTT assay
Assay type: functional, cell-based
condition_summary: HCT-116, 24 h
Give bare numbers, in µM.

Quick batch: IC50 for everything below.
1. Br.O=Cc1c(-c2ccccc2)nc2n1ccc1nc(-c3ccccc3)c(/C=N/NC3=NCCN3)n12
2. O=Cc1c(-c2ccccc2)nc2n1ccc1nc(-c3ccccc3)c(C=O)n12
3. Cl.Cl.N=C(N)N/N=C/c1c(-c2ccccc2)nc2n1ccc1nc(-c3ccccc3)c(/C=N/NC(=N)N)n12

[0.407, 4.06, 5.12]

* * *

method: Binding affinity to synthetic self-complementary DNA 12-mer duplex assessed as change in melting temperature at 4 mol equiv in presence of 100 mM KCl buffer by circular dichroism spectroscopic analysis
Response field label takes condition met when ΔTm is strictly below 0.9 °C and condition not met in all other cases.

Please review the entries below; each comes with its answer.
{"sample_smiles": "N=C(N)N/N=C/c1c(-c2ccccc2)nc2ccn3c(/C=N/N=C(N)N)c(-c4ccccc4)nc3n12", "category_label": "condition met"}
{"sample_smiles": "Br.O=Cc1c(-c2ccccc2)nc2n1ccc1nc(-c3ccccc3)c(/C=N/NC3=NCCN3)n12", "category_label": "condition met"}
{"sample_smiles": "CN1C(=C2\\C(=N\\NC(=N)N)c3ccccc3N2C)/C(=N/NC(=N)N)c2ccccc21", "category_label": "condition met"}
{"sample_smiles": "CN1C(=C2\\C(=N\\Nc3ccccn3)c3ccccc3N2C)/C(=N/Nc2ccccn2)c2ccccc21", "category_label": "condition met"}
{"sample_smiles": "N=C(N)N/N=C/c1c(-c2ccsc2)nc2n1ccc1nc(-c3ccsc3)c(/C=N/NC(=N)N)n12", "category_label": "condition not met"}

Let's switch to this molecule now.
Hi there! Is ΔTm for C(=N\NC1=NCCN1)/c1c(-c2ccccc2)nc2n1ccc1nc(-c3ccccc3)c(/C=N/NC3=NCCN3)n12 below 0.9 °C, do you know?
condition not met

* * *

method: Effect on synthetic telomere 23 parallel G-quadruplex DNA topology at 4 mol equiv by circular dichroism spectroscopic analysis
Calls of active or inactive are those of the source. No cut-off for these calls is given here.

{"sample_smiles": "Cn1c(Cl)c(/C=N/NC(=N)N)c2cc3c(/C=N/NC(=N)N)c(Cl)n(C)c3cc21", "Activity": "inactive"}
{"sample_smiles": "CN1C(=C2\\C(=N\\NC(=N)N)c3ccccc3N2C)/C(=N/NC(=N)N)c2ccccc21", "Activity": "inactive"}
{"sample_smiles": "CN1C(=C2\\C(=N\\Nc3ccccn3)c3ccccc3N2C)/C(=N/Nc2ccccn2)c2ccccc21", "Activity": "inactive"}
{"sample_smiles": "C(=N\\NC1=NCCN1)/c1c(-c2ccccc2)nc2n1ccc1nc(-c3ccccc3)c(/C=N/NC3=NCCN3)n12", "Activity": "inactive"}
